experiment: Cytotoxicity against human central nervous system cancer cells; assay type: functional; conditions: Cancer cell lines, read-out: pTGI (converted)
measure: TGI (µM)
Only the number, expressed in µM, is required.

• O=C1Nc2ccccc2/C1=C\c1cccc(/C=C2/C(=O)Nc3ccccc32)n1 = 1.82
• COc1ccc2c(c1)/C(=C\c1cccc(/C=C3/C(=O)Nc4ccc(OC)cc43)n1)C(=O)N2 = 12.9
• O=C(O)CCC(=O)c1ccc2c(c1)/C(=C\c1cccc(/C=C3/C(=O)Nc4ccc(C(=O)CCC(=O)O)cc43)n1)C(=O)N2 = 61.7

Now for the compound whose TGI we want.
Data request: Name the reported TGI value associated with the compound COc1ccc2c(c1)/C(=C\c1cccc(/C=C3/C(=O)N(C)c4ccc(OC)cc43)n1)C(=O)N2C
Data returned: 14.8
